assay: Log P determination (octanol/water) by LC/MS/MS; type: physicochemical; conditions: n-octanol/water, 1 h, replicates; read-out: Log P
reported.metric: logP at 1 h
I only need the number, thanks.

Quick note, logP at 1 h for OB1OCc2cc(F)ccc21 [C10, 5-fluorobenzo[c][1,2]oxaborol-1(3H)-ol] landed at 2.04

###

Assay: Log P determination (octanol/water) by LC/MS/MS
Format: physicochemical
Conditions: n-octanol/water, after 1 h (n=3); read-out: mean log P
Procedure: C10 (10 μL of […]) at 2× the final concentration was added to 0.5 mL pre-saturated n-octanol and mixed. […] A 1/concentration weighted linear regression was used for the quantitation of C10. […] For C10, peak area ratios analyte to internal standard PNP were used for all quantitation. The partition coefficient (P) was calculated according to the equation detailed below: P=[Sample concentration]octanol/[Sample concentration]water Log P=log10(partition coefficient) Results: […]
reported.metric: logP at 1 h
I only need the number, thanks.

Quick note, logP at 1 h for OB1OCc2cc(F)ccc21 [C10, 5-fluorobenzo[c][1,2]oxaborol-1(3H)-ol] landed at 1.97

###

assay: Log P determination (octanol/water) by LC/MS/MS; type: physicochemical; conditions: n-octanol/water, 24 h, replicates
reported.metric: logP at 24 h
I only need the number, thanks.

Quick note, logP at 24 h for OB1OCc2cc(F)ccc21 [C10, 5-fluorobenzo[c][1,2]oxaborol-1(3H)-ol] landed at 1.97
